Biological target: T1, recombinant human C5 (human, UniProt P01031 20-1676)
T1 construct: The same entry is used here for C5 in normal human serum in the functional rows; also called hC5; rhC5
Test: SPR (BIACORE T200), antibody captured by ProA/G, recombinant human C5 injected, 37 degrees C, pH7.4; pH 7.4
observation-type: koff (s⁻¹)
Record the value in s⁻¹, omitting the unit from your answer.

koff recorded for this binder, CFA0538 (antibody, V domains shown) VH: QSVEESGGRLVTPGTPLTLTCTASGFSLSSYYMNWVRQAPGKGLEWIGMIYGSGATYYASWAKGRFTISKTSSTTVDLKMTSLTTEDTATYFCARQIYSGDNNDNFWGPGTLVTVSS VL: AYDMTQTPASVEVAVGGTVTINCQASESISNWLAWYQQKPGQRPKLLIYRASTLASGVSSRFKGSGSGTQFTLTISGVECDDAATYYCQQDYSSSNVDNTFGGGTTVVVE , is 0.00185

koff recorded for this binder, CFA0666 (antibody, V domains shown) VH: QSVEESGGRLVTPGTPLTLTCTVSGFSLSTYAMGWVRQAPGKGLEWIGTIDTGDNSFYANWAKGRFTISKTSTTVDLKITSPTAEDTATYFCARNDGSVYNLFNLWGPGTLVTVSS VL: DVVMTQTPASVSAAVGGTVTIKCQASENIYSALSWYQQKPGLRPRLLIYYASTLASGVPSRFKGSRSGTEFTLTISDLECADAATYYCQQYYDINSVDNTFGGGTKVVVE , is 0.000626

koff recorded for this binder, CFA0675 (antibody, V domains shown) VH: QSVEESGGRLVTPGTPLTLTCTVSGFSLSTYAMGWVRQAPGKGLEWIGTIDTGDNSFYANWAKGRFTISRTSTTVDLKITSPTAEDTATYFCARNDGSVYNLFNLWGPGTLVTVSS VL: DVVMTQTPASVSAAVGGTVTIKCQASENIYSALSWYQQKPGLRPRLLIYYASTLASGVPSRFKGSRSGTEFTLTISDLECADAASYYCQQYYDINSVDNTFGGGTKVVVE , is 0.000412
